All figures here come from paper PMC5589751.

targetOrTestSystem: NaV1.6 (Homo sapiens, UniProt Q9UQD0)
Sequence (Q9UQD0 whole entry): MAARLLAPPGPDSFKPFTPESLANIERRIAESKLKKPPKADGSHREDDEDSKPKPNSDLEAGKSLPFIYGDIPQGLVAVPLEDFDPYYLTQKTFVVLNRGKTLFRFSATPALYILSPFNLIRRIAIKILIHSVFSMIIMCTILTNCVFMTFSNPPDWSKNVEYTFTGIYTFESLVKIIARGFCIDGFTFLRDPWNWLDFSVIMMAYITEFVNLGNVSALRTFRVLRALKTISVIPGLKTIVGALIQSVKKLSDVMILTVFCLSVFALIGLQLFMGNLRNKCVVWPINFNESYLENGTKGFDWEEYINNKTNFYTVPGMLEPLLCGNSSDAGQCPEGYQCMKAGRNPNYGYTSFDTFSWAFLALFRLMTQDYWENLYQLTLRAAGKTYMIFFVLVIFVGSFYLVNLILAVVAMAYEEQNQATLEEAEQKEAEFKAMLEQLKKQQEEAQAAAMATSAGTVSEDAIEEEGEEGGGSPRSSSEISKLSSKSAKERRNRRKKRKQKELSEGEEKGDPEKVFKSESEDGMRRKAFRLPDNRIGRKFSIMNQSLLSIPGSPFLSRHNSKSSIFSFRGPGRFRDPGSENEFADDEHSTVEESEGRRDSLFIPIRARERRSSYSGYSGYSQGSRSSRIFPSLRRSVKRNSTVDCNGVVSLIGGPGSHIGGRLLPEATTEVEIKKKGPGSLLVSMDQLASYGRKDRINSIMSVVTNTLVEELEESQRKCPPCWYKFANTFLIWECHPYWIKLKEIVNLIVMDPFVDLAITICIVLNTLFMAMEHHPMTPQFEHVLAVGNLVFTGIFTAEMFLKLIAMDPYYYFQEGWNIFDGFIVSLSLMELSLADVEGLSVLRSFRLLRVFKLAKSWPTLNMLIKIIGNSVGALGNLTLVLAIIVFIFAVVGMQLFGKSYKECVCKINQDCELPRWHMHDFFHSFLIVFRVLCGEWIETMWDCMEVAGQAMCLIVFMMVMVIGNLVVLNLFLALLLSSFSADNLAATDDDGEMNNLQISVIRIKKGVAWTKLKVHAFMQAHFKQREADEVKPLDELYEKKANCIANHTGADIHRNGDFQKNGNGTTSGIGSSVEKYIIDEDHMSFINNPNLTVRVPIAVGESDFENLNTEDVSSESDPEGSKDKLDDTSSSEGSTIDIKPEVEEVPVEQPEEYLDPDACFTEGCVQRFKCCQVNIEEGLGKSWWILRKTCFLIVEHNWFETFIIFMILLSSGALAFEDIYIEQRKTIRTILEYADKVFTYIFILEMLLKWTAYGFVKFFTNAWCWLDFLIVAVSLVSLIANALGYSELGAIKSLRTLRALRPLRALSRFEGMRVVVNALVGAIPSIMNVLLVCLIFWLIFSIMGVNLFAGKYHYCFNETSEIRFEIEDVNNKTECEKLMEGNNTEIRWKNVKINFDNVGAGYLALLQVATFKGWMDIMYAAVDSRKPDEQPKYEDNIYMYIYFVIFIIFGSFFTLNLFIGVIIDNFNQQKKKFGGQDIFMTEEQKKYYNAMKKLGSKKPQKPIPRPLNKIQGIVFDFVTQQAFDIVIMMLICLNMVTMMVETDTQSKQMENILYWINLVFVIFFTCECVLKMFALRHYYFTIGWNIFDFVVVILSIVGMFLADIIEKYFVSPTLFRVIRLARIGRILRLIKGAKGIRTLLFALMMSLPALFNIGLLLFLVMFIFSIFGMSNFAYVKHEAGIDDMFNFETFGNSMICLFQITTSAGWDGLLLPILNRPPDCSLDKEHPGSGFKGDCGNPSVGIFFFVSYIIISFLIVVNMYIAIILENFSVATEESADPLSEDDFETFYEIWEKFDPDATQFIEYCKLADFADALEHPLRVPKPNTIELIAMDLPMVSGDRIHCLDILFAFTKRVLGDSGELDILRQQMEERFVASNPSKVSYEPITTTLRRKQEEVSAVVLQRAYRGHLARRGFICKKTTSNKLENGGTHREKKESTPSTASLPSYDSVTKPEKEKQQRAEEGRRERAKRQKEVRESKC
procedureText: Whole-cell patch clamp in cells expressing NaV1.6
Protocol: Electrophysiological recording was carried out 1–3 d after cells seeded. Membrane currents and voltages were recorded by patch clamp using the whole-cell configuration. For whole-cell recordings of HEK-hTRPV1 and HEK-TRPM8 cells, pipette solution contained (in mM) 140 CsCl, 5 EGTA, and 10 HEPES, adjusted to pH 7.2 with CsOH, and bath solution contained (in mM) 140 NaCl, 5 KCl, 2 CaCl2, 2 MgCl2, 5 EGTA, 10 D-glucose, 10 Mannitol and 10 HEPES, adjusted to pH 7.4 with NaOH. […]
Items are presented alongside their recorded IC50.

| compound | IC50 |
| --- | --- |
| CC(C)(C)OC(=O)N[C@@H](CCN1C(=O)CC1(Cc1ccccc1)C(=O)OCc1ccccc1)C(=O)OCc1ccccc1 (some centres unmarked) | > 1000 nM |
| CC1C(=O)N(CC[C@H](NC(=O)OC(C)(C)C)C(=O)OCc2ccccc2)C1(Cc1ccccc1)C(=O)OCc1ccccc1 (some centres unmarked) | > 1000 nM |

----------
Quick reference for % Block TRPV1 50 µM among some compounds
targetOrTestSystem: TRPV1 (Rattus norvegicus)
Sequence (O35433 whole entry): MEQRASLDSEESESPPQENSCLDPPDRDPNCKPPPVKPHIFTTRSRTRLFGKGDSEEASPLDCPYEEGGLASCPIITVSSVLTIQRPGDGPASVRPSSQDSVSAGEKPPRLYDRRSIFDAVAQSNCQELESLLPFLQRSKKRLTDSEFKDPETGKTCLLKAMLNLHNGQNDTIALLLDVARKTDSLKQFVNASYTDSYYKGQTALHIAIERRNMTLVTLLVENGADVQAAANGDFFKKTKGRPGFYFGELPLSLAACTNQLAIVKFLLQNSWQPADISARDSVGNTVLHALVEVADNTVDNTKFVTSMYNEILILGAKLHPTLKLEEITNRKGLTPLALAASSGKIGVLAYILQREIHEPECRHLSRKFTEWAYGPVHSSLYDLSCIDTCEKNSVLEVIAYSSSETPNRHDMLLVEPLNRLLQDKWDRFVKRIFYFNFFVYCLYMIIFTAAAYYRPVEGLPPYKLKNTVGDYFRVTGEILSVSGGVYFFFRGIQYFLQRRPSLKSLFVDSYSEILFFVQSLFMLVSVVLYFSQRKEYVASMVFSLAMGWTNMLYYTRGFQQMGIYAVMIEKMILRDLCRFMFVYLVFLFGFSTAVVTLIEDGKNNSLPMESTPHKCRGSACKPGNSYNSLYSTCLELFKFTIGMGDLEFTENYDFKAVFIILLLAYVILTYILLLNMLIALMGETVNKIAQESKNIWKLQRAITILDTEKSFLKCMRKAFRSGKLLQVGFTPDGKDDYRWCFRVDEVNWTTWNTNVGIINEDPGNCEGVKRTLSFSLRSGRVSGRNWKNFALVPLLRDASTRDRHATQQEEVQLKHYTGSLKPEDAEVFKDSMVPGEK
procedureText: Ca2+ microfluorography (Fluo-4 NW), capsaicin-induced Ca2+ signal in SH-SY5Y-TRPV1 cells
Format: cell-based
experimentalContext: 50 µM compound; agonist 10 µM capsaicin; SH-SY5Y-TRPV1 cells
readoutLabel: % Block TRPV1 50 µM (%)

| compound | readoutLabel | experimentalResult |
| --- | --- | --- |
| CC(C)(C)OC(=O)NC(CCCN1C(=O)CC1(Cc1ccccc1)C(=O)OCc1ccccc1)C(=O)OCc1ccccc1 (stereo not drawn) [Compound 46] | % Block TRPV1 50 µM | 59.4 |
| CC(C)(C)OC(=O)NC(CCN1C(=O)CC1(Cc1ccccc1)C(=O)O)C(=O)O (stereo not drawn) [Compound 51] | % Block TRPV1 50 µM | 15.9 |
| CC1C(=O)N(CC[C@H](NC(=O)OC(C)(C)C)C(=O)OCc2ccccc2)C1(Cc1ccccc1)C(=O)OCc1ccccc1 (stereo partly drawn) [Compound 45] | % Block TRPV1 50 µM | 31.8 |

----------
targetOrTestSystem: TRPM8 (Rattus norvegicus, UniProt Q8R455)
Construct: expressed in transfected cells
Sequence (Q8R455 whole entry): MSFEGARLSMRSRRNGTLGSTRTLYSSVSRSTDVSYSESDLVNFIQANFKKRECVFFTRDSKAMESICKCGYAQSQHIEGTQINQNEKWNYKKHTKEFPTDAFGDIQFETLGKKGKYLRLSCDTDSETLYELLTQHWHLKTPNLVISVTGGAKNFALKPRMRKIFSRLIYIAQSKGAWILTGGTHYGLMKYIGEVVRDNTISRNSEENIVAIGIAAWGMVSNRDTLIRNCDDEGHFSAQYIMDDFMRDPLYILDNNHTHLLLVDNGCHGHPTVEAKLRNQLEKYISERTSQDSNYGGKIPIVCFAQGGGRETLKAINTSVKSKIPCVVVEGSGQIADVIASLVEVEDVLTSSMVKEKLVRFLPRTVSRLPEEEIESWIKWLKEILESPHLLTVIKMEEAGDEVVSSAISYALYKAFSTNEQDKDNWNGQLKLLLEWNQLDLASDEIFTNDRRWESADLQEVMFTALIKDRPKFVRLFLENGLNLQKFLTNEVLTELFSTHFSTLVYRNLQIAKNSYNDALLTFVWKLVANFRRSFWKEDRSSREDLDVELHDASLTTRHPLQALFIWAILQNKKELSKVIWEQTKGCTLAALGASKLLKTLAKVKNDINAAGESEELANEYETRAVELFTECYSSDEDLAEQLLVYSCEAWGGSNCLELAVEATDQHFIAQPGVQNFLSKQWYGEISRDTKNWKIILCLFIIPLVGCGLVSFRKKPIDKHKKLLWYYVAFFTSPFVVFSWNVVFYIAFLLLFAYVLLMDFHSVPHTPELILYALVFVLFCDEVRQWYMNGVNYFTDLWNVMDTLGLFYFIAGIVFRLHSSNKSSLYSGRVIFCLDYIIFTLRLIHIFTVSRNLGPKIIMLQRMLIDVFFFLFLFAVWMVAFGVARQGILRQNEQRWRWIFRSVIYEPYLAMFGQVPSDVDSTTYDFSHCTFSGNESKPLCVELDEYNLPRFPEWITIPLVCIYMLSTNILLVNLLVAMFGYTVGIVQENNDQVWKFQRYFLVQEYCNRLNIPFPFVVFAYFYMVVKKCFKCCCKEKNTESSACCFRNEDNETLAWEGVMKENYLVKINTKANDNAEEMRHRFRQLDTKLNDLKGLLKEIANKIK
procedureText: Ca2+ microfluorography (Fluo-4 NW), menthol-induced Ca2+ signal in HEK-CR1-TRPM8 cells
Format: cell-based
experimentalContext: 50 µM compound; agonist 100 µM menthol; HEK-CR1-TRPM8 cells

| compound | % Block TRPM8 50 µM (%) |
| --- | --- |
| COC(=O)C1(C)CC(=O)N1CC[C@H](NC(=O)OC(C)(C)C)C(=O)OCc1ccccc1 (stereo partly shown) [Compound 43] | 80.5 |
| COC(=O)C(CCCN1C(=O)CC1(Cc1ccccc1)C(=O)OC(C)(C)C)NC(=O)OCc1ccccc1 (stereo not shown) [Compound 47] | 94.9 |
| CC(C)(C)OC(=O)NC(CCCN1C(=O)CC1(Cc1ccccc1)C(=O)NCc1ccccc1)C(=O)NCc1ccccc1 (stereo not shown) [Compound 64] | 70.4 |
| CC(C)(C)OC(=O)N[C@@H](CCN1C(=O)C[C@]1(Cc1ccccc1)C(=O)Nc1ccncc1)C(=O)Nc1ccncc1 [Compound 67a] | 43.5 |
